All figures here come from patent US9394309B2.

MEASURED TARGET: endogenous Tie2 receptor (Homo sapiens (Human), UniProt Q02763)
Sequence (Q02763 23-1124): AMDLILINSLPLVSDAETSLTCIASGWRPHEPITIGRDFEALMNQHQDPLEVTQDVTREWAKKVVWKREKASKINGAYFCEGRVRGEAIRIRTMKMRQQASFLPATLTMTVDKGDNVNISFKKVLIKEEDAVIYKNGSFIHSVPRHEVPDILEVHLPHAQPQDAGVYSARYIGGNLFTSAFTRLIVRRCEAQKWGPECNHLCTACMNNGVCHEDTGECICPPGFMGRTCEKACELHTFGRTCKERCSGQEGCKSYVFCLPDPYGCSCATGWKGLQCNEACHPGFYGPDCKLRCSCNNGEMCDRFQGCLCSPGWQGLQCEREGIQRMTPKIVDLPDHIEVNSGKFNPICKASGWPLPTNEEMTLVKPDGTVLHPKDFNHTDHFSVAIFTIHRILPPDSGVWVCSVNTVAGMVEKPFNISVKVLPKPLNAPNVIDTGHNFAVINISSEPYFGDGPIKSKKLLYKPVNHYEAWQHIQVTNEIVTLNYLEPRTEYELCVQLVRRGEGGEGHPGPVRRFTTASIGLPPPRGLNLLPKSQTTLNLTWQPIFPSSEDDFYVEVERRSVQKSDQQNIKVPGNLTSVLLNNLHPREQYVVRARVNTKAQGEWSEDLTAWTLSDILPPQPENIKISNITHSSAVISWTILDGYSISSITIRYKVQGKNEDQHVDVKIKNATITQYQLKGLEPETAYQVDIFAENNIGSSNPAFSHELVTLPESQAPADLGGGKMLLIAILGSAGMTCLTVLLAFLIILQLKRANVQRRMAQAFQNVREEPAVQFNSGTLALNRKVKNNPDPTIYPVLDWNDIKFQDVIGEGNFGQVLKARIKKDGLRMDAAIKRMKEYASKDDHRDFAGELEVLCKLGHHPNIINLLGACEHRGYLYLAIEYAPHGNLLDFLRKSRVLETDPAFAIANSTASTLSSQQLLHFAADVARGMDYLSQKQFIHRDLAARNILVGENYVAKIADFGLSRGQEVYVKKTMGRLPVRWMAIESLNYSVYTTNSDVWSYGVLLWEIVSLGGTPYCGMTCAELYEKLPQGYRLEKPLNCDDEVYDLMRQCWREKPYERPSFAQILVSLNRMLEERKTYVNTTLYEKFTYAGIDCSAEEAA
EXPERIMENTAL PROTOCOL: Tie2-pTyr-ELISA (Tie2 autophosphorylation in HUVEC)
EXPERIMENTAL CONDITIONS: autophosphorylation elevated by 4 mM sodium orthovanadate, from 2-7 independent measurements
MEASUREMENT NAME: pIC50
A value of pIC50 is the negative decimal logarithm of a concentration given in moles per litre.

stdin: Which measured pIC50 value corresponds to `Cc1ccc(NC(=O)c2cc(C#N)cc(S(F)(F)(F)(F)F)c2)cc1-n1ccn2nc(-c3cn[nH]c3)cc12` ?
stdout: 7.36
